The following compounds are shown together with reported growth values.
# Test system: NCI-H522 lung
# Protocol details: NCI-60 one-dose screen, 48 h (100 = growth as untreated, 0 = no growth, -100 = all killed)
# Recorded conditions: 10 µM
Compounds without any hit were thinned out: in the full panel of roughly 83,000, 20% have a hit.
Endpoint: growth (%)

INSERT INTO results (compound, endpoint, numeric_readout) VALUES
  ('O=C(NCc1ccco1)C1CCN(S(=O)(=O)c2ccc(Cl)cc2)CC1', 'growth', 68.7),
  ('COc1cccc(Nc2nc(NCCO)c3ccccc3n2)c1', 'growth', 70.8),
  ('COc1ncc(F)c(OC)n1', 'growth', 97.5),
  ('O=C1OCC2=C1C(c1ccc3c(c1)OCO3)CC(=O)N2c1cccc(Cl)c1 (stereo not given)', 'growth', 92.9),
  ('Clc1ccc(Nc2ccnc(N3CCN(c4ccnc5cc(Cl)ccc45)CC3)n2)cc1', 'growth', 35.1);

====

The following molecules are shown together with reported growth values.
# System: ACHN renal
# Protocol details: NCI-60 one-dose screen, 48 h (100 = growth as untreated, 0 = no growth, -100 = all killed)
# Recorded conditions: 10 µM unless noted
The panel holds about 83,000 compounds, 20% with a hit somewhere; the sample as a whole holds those more often.
Endpoint: growth (%)

INSERT INTO assay_data (molecule, numeric_readout) VALUES
  ('CN1CCc2cccc3c2C1Cc1ccc(O)c(O)c1-3 (configuration not stated)', 73),
  ('CCCCOC(=O)C1OC(Oc2ccc3c(C)cc(=O)oc3c2)[C@@H](OC(C)=O)C(OC(C)=O)C1OC(C)=O (some centres not stated)', 101),
  ('Cc1nc2cc(Nc3nc(NCCO)nc(Nc4ccc(F)cc4)n3)ccc2n1Cc1ccccc1', 98.3),
  ('C=C1CC[C@@H]2[C@@](C)(CCC[C@]2(C)C(=O)O)[C@@H]1CC[C@H](CO)CCO', 106),
  ('CSc1nnc(-c2sc3nnc(-c4ccccc4)c(-c4ccccc4)c3c2O)o1', 83.6),
  ('O=C1NC(=O)C(CSc2ccccc2)(c2ccccc2)N1 (configuration not stated)', 101),
  ('Cc1ccc2c(N/N=C\c3ccco3)cc(C)nc2n1', 39.5);

====

# Test system: KM12 colon
# Protocol details: NCI-60 one-dose screen, 48 h (100 = growth as untreated, 0 = no growth, -100 = all killed)
# Recorded conditions: 10 µM unless noted
# Protocol: Growth inhibition of the KM12 human tumor cell line is measured as a screen for anti-cancer activity. Cells are grown in 96 well plates and exposed to the test compound for 48 hours. Compounds are tested at a single concentration, which is 10^-5 M for most compounds. The reported endpoint is percent growth (GI% or GIPRCNT), where numbers from 0 - 100% represent growth inhibition, and numbers from -100% - 0 represent cell death. For example, a value of 40 represents 60% growth inhibition. […]
Compounds without any hit were thinned out: in the full panel of roughly 83,000, 20% have a hit.
Endpoint: growth (%)

INSERT INTO assay_data (compound, target_desc, endpoint, unit_of_measure, numeric_readout) VALUES
  ('FCOC(C(F)(F)F)C(F)(F)F', 'KM12 colon', 'growth', '%', 103),
  ('O=C(COc1ccc(/C=C2\CSc3ccccc3C2=O)cc1)c1ccc(Cl)cc1', 'KM12 colon', 'growth', '%', 106),
  ('COc1ccc(C(=O)COc2cccc(/C=C3\CSc4ccc(C)cc4C3=O)c2)cc1', 'KM12 colon', 'growth', '%', 79.6),
  ('CC(C)(C)[Si](C)(C)OC1[C@@H](O[Si](C)(C)C(C)(C)C)[C@@H](CNC(=O)NC(=O)C(F)(F)F)O[C@H]1n1cnc2c(NC(=O)Nc3ccccc3)ncnc21 (stereo partly drawn)', 'KM12 colon', 'growth', '%', 24),
  ('CN1CCC(OC2c3ccccc3CCc3ccccc32)CC1', 'KM12 colon', 'growth', '%', 102),
  ('CCN(c1ccc(C(=O)N2CCN(c3ccccc3)CC2)cc1)S(C)(=O)=O', 'KM12 colon', 'growth', '%', 101),
  ('COc1cccc2c(=O)c3c(sc12)c(NCCN(C)C)nc1ccccc13', 'KM12 colon', 'growth', '%', -76.7),
  ('O=C1C(Br)=C(c2ccccc2)C(=O)C(Br)=C1c1ccccc1', 'KM12 colon', 'growth', '%', 102),
  ('CN1CCc2c(c3ccccc3c3ccccc23)C1', 'KM12 colon', 'growth', '%', 39.1),
  ('COc1ccc(-n2ncc3c2ccc2cc(S(=O)(=O)c4ccccc4)c(=O)n(C)c23)cc1', 'KM12 colon', 'growth', '%', 88.8),
  ('COc1cc(/C=N/NC(=O)c2cnn3c2NC(c2ccccc2)C3)cc(OC)c1OC (stereo not drawn)', 'KM12 colon', 'growth', '%', 30.6),
  ('COc1ccc(-c2nc3sccn3c2/C=C/C(=O)c2cc(OC)c(OC)c(OC)c2)cc1OC', 'KM12 colon', 'growth', '%', -15.2),
  ('COc1ccc(/C=N\N2CCOCC2)cc1OC1CCCC1', 'KM12 colon', 'growth', '%', 106),
  ('COc1cccc(OC(=O)c2ccccc2)c1OC(=O)c1ccccc1', 'KM12 colon', 'growth', '%', 45.2),
  ('O=C(CCc1nnc2sc(-c3ccccc3)nn12)c1nc2ccccc2[nH]1', 'KM12 colon', 'growth', '%', 100),
  ('Cc1nn2c(-c3nc4ccc(Cl)cc4[nH]3)c(-c3ccc(F)cc3)nc2s1', 'KM12 colon', 'growth', '%', 89.4),
  ('N#Cc1ccc(C(F)(F)F)nc1N1CCC(C(=O)Nc2ccc(Cl)cc2)CC1', 'KM12 colon', 'growth', '%', 91),
  ('O=C1/C(=C/c2ccc(Oc3ccccc3)cc2)N=C(c2ccccc2)N1CCc1cccs1', 'KM12 colon', 'growth', '%', 97.6),
  ('O=C1c2ccccc2-c2cn(Cc3ccccc3)c3cccc(c23)C1c1cccnc1 (stereo not drawn)', 'KM12 colon', 'growth', '%', 30.5),
  ('CCC12CCC3c4ccc(O)cc4CCC3C1CC(O)C2O (stereo not drawn)', 'KM12 colon', 'growth', '%', 53.5),
  ('COc1ccc(Nc2nc(NCCNc3ccnc4cc(Cl)ccc34)nc(N3CCOCC3)n2)cc1', 'KM12 colon', 'growth', '%', 51.5),
  ('CCC(=O)Nc1nnc(Cc2ccc(OC)c(OC)c2)s1', 'KM12 colon', 'growth', '%', 36.3),
  ('Cc1cccc2c(=O)c3c(sc12)c(NCCNCCO)nc1ccccc13', 'KM12 colon', 'growth', '%', 5.93),
  ('C[C@]1(CO)C[C@@H](O)C[C@]2(C)[C@@H]1CC[C@@]13C[C@@H]4[C@@H](C[C@H]12)[C@]4(C)C3', 'KM12 colon', 'growth', '%', 109),
  ('COc1ccc(/C=C2\Oc3cc(C)c(Cl)cc3C2=O)cc1OC', 'KM12 colon', 'growth', '%', 100),
  ('O=C(O)C[C@H](O)C[C@H](O)/C=C/c1c(C2CC2)nc2ccccc2c1-c1ccc(F)cc1', 'KM12 colon', 'growth', '%', 102),
  ('CCOc1ccc(/C=N\N2CCCCCC2)cc1OCC', 'KM12 colon', 'growth', '%', 103),
  ('COc1ccccc1-n1c(SCc2cc(OC)c(OC)c(OC)c2)nc2ccc(Cl)cc2c1=O', 'KM12 colon', 'growth', '%', 16.4),
  ('COc1ccc(/C=N/NC(=O)c2cnn3c2NC(c2ccccc2)C3)cc1OC1CCCC1 (stereo not drawn)', 'KM12 colon', 'growth', '%', 81.3),
  ('COc1cc(C2=NN(c3ccc(S(N)(=O)=O)cc3)C(c3ccc(Cl)cc3)C2)cc(OC)c1OC (stereo not drawn)', 'KM12 colon', 'growth', '%', 37.6),
  ('COc1ccc(OC2=C(C#N)C(=N)N3c4ccccc4Sc4ccccc4C3N2)cc1 (stereo not drawn)', 'KM12 colon', 'growth', '%', 97.7),
  ('COc1cc2oc(-c3ccc(O)cc3)cc(=O)c2c(O)c1I', 'KM12 colon', 'growth', '%', 96.5),
  ('CCCCC(CCCC)(S(=O)(=O)CC)S(=O)(=O)CC', 'KM12 colon', 'growth', '%', 96.7);

====

# Tested on: HOP-92 NSCLC
# Protocol details: NCI-60 one-dose screen, 48 h (100 = growth as untreated, 0 = no growth, -100 = all killed)
# Recorded conditions: 10 µM unless noted
# Description: Growth inhibition of the HOP-92 human Non-Small Cell Lung tumor cell line is measured as a screen for anti-cancer activity. Cells are grown in 96 well plates and exposed to the test compound for 48 hours. Compounds are tested at a single concentration, which is 10^-5 M for most compounds. The reported endpoint is percent growth (GI% or GIPRCNT), where numbers from 0 - 100% represent growth inhibition, and numbers from -100% - 0 represent cell death. […]
This is part of a sample that, as a whole, favours compounds with a hit. Of some 83,000 tested, about 20% had one in any assay.
# binning rule on growth: lower bin: < 40%; middle bin: ≥ 40% and < 90%; upper bin: ≥ 90%

INSERT INTO assay_data (molecule, assigned_category) VALUES
  ('O=C(N/N=C(\CS(=O)(=O)c1ccccc1)c1cc2cc(Br)ccc2oc1=O)c1ccccc1', 'upper bin'),
  ('COC(=O)c1c2c(c(C)[n+]([O-])c1C)C(=O)C=C(NCc1ccc(Cl)cc1)C2=O', 'lower bin'),
  ('COc1cc(-c2nc(SC(C)C)nc(Nc3ccccc3C)c2C#N)cc(OC)c1OC', 'upper bin'),
  ('CCC(C)Oc1cc(/C=N/NC(=O)c2cnn3c2NC(c2ccccc2)C3)ccc1OC (stereo not given)', 'middle bin'),
  ('CC(C)(C)[Si](C)(C)OC1[C@@H](COC(N)=O)O[C@@H](n2cnc3c(N)ncnc32)[C@H]1O[Si](C)(C)C(C)(C)C (stereo not given in full)', 'middle bin'),
  ('COc1ncc(F)c(OC)n1', 'middle bin'),
  ('CSC1=CC(=O)c2ccccc2C1=O', 'lower bin'),
  ('Clc1ccc2c(c1)C[C@H]1C[C@@H](c3cccs3)N2O1', 'middle bin'),
  ('O=C(CCc1nnc2sc(/C=C\c3ccccc3)nn12)c1nc2ccccc2[nH]1', 'middle bin'),
  ('c1ccc(-c2n(Cc3ccc4ccccc4c3)c3ccccc3[n+]2Cc2ccc3ccccc3c2)cc1', 'lower bin'),
  ('COc1ccc(-n2ncc3c2ccc2cc(S(=O)(=O)c4ccccc4)c(=O)n(C)c23)cc1', 'lower bin'),
  ('O=C1c2c(c3c4cc(Br)ccc4[nH]c3c3ccc4ccccc4c23)C(=O)N1O', 'upper bin'),
  ('FCOC(C(F)(F)F)C(F)(F)F', 'upper bin'),
  ('CCOC(=O)c1cc2c(n(C)c1=O)-c1cnn(-c3ccc(OC)cc3)c1CC2', 'upper bin'),
  ('COc1nc2c(cc1S(=O)(=O)c1ccccc1)CCc1c-2cnn1-c1ccccc1Cl', 'lower bin'),
  ('C=C(C)CCCC(C)CC#N (stereo not given)', 'upper bin'),
  ('CC(C)(C)[Si](C)(C)OC1[C@@H](O[Si](C)(C)C(C)(C)C)[C@@H](CNC(=O)NC(=O)C(F)(F)F)O[C@H]1n1cnc2c(NC(=O)Nc3ccccc3)ncnc21 (stereo not given in full)', 'lower bin'),
  ('COc1nc2c(cc1S(=O)(=O)c1ccccc1)CCc1c-2cnn1-c1cccc(Cl)c1', 'middle bin'),
  ('NC1=NC(c2ccccc2OS(=O)(=O)c2ccc(Br)cc2)n2c(nc3ccccc32)N1 (stereo not given)', 'lower bin'),
  ('CCCCc1ccc(C(O)(CCN2CC3CCC(CC3)C2)c2ccccc2)cc1 (stereo not given)', 'middle bin'),
  ('CCCCCn1c(=N)n(CC(O)COc2cccc(C)c2)c2ccccc21 (stereo not given)', 'lower bin'),
  ('CC1(C)N=C(N)N=C(N)N1c1cccc(/C=C/C=C/c2cccc([N+](=O)[O-])c2)c1', 'middle bin'),
  ('O=C1C(Cl)=C(NCCCN2CCOCC2)C(=O)c2ccccc21', 'upper bin'),
  ('COc1cccc2c(=O)c3c(sc12)c(NCCN(C)C)nc1ccccc13', 'lower bin'),
  ('O=C1N/C(=C\c2ccccc2)c2ncccc21', 'upper bin'),
  ('CCCN1CCN(c2ccc3nc(-c4ccc5nc(-c6ccc(C(F)(F)F)cc6)[nH]c5c4)[nH]c3c2)CC1', 'middle bin'),
  ('Cc1nc2ccc(Cl)cc2n1C', 'upper bin'),
  ('O=C(Nc1ccc(F)cc1)c1ccc(C(=O)Nc2ccc(F)cc2)cc1', 'upper bin');
